# Experiment: solvent given as SMILES
# Condition Set: in Cc1ccccc1
Short version: absorption maximum at least 400 nm is yes, less is no.

Does the reported absorption maximum for CC(C)[Si](C#Cc1c2ccc(C(C)(C)C)cc2c(C#Cc2c3ccc(C(C)(C)C)cc3c(C#Cc3c4ccc(C(C)(C)C)cc4c(C#C[Si](C(C)C)(C(C)C)C(C)C)c4ccc(C(C)(C)C)cc34)c3ccc(C(C)(C)C)cc23)c2ccc(C(C)(C)C)cc12)(C(C)C)C(C)C fall at or above the 400 nm mark?
yes

Does the reported absorption maximum for c1ccc(-n2c(-c3cccc4ccccc34)nc3c4ccccc4c4ccccc4c32)cc1 fall at or above the 400 nm mark?
no

Does the reported absorption maximum for CCC/N=C/c1cc2ccc(N(C)C)cc2cc1OC fall at or above the 400 nm mark?
no

Does the reported absorption maximum for CCC1(CC)c2cc(C#Cc3cc(C#Cc4ccc5c(c4)C(CC)(CC)c4cc(N(c6ccccc6)c6ccccc6)ccc4-5)c4ccc5c(C#Cc6ccc7c(c6)C(CC)(CC)c6cc(N(c8ccccc8)c8ccccc8)ccc6-7)cc(C#Cc6ccc7c(c6)C(CC)(CC)c6cc(N(c8ccccc8)c8ccccc8)ccc6-7)c6ccc3c4c65)ccc2-c2ccc(N(c3ccccc3)c3ccccc3)cc21 fall at or above the 400 nm mark?
yes

Does the reported absorption maximum for COc1ccc(C2=C(c3ccc(F)cc3)C(c3ccccc3)=[N+]3C2=Nc2c(-c4ccc(OC)cc4)c(-c4ccc(F)cc4)c(-c4ccccc4)n2[B-]3(F)F)cc1 fall at or above the 400 nm mark?
yes

* * *

# Experiment: solvent given as SMILES
# Condition Set: in O
Consider the following compounds; for each one, report its absorption maximum.
Form entry: value (nm) — number only.

# lookup: absorption maximum of Nc1nc2c([nH]c(=O)n2[C@H]2C[C@H](O)[C@@H](CO)O2)c(=O)[nH]1
294.99

# lookup: absorption maximum of O=C1/C(=C2\Sc3ccc(S(=O)(=O)O)cc3C2=O)Sc2ccc(S(=O)(=O)O)cc21
546

# lookup: absorption maximum of CN(C)CCCN1c2ccccc2Sc2ccc(Cl)cc21
307

# lookup: absorption maximum of [O-]c1ccc2ccccc2c1
346

# lookup: absorption maximum of COc1cccc(OC)c1-c1c2ccc(=[N+]3CCNCC3)cc-2oc2cc(N3CCNCC3)ccc12
542

* * *

# Experiment: solvent given as SMILES
# Condition Set: in ClCCl
Consider the following molecules; for each one, report its absorption maximum.
Form entry: value (nm) — number only.

# lookup: absorption maximum of Cc1ccc(N(c2ccc(C)cc2)c2ccc(-c3cc4c(cc(-c5ccc(N(c6ccc(C)cc6)c6ccc(C)cc6)cc5)c5nsnc54)c4nsnc34)cc2)cc1
518

# lookup: absorption maximum of C[Si]1(C)c2ccc(-c3ccc(-c4cccs4)s3)cc2C=Cc2cc(-c3ccc(-c4cccs4)s3)ccc21
398

# lookup: absorption maximum of COC(=O)c1ccc(C(=O)NC(C)(C)C)c2c1ccc1c3ccccc3c3ccccc3c12
336

# lookup: absorption maximum of COCCOCCOCN1C(=O)c2ccc3c(-c4ccccc4)c4c5ccc6c7c(ccc(c(-c8ccccc8)c4c4ccc(c2c34)C1=O)c75)C(=O)N(COCCOCCOC)C6=O
630

* * *

# Experiment: solvent given as SMILES
# Condition Set: in ClCCl
Consider the following compounds; for each one, report its absorption maximum.
Form entry: value (nm) — number only.

# lookup: absorption maximum of COc1ccc(-c2cc3c(ccc(=O)n3C)s2)cc1
378

# lookup: absorption maximum of CC(C)(C)c1ccc2ccc3cc(-c4ccc5c(-c6ccc7c(ccc8ccc(C(C)(C)C)cc87)c6)cc6c7cc(-c8ccc9c(ccc%10ccc(C(C)(C)C)cc%109)c8)ccc7c(-c7ccc8c(ccc9ccc(C(C)(C)C)cc98)c7)cc6c5c4)ccc3c2c1
303

# lookup: absorption maximum of CCCCC1=C(CCCC)c2cccc3c2c(cc2nc4ccccc4nc23)O1
503

# lookup: absorption maximum of CC(C)(C)NC(=O)c1cccc2ccc3c4ccc(F)cc4c4cc(F)ccc4c3c12
329

# lookup: absorption maximum of Clc1ccc2nc3cc4ccccc4cc3c(-c3ccccc3)c2c1
402

# lookup: absorption maximum of CCCCN(CCCC)c1ccc(C#Cc2cc(C#Cc3ccc(N(CCCC)CCCC)cc3)c(C#Cc3ccc(C#N)cc3)cc2C#Cc2ccc(C#N)cc2)cc1
435

# lookup: absorption maximum of C=CCNc1ccc2ccc3oc4cc(=[N+](C)C)ccc-4nc3c2c1
582

# lookup: absorption maximum of CN(C)c1ccc(C2=Cc3cc(Cl)nc[n+]3[B-](F)(F)O2)cc1
459

# lookup: absorption maximum of c1ccc(-n2c3ccccc3c3cc(-c4cccc(-n5c6ccccc6c6ncccc65)c4)ccc32)cc1
345

# lookup: absorption maximum of C1=CC2=CC=CC3C=c4c(cc5cccc6cccc4c65)C(=C1)C23 (centres undefined)
543

# lookup: absorption maximum of N#CC1N=c2cc3c4c(cccc4c2=NC1C#N)C(c1ccccc1)=C(c1ccccc1)O3 (centres undefined)
501

# lookup: absorption maximum of Cc1ccc(-c2cc(C)[o+]c(C)c2)cc1
365

# lookup: absorption maximum of Cc1ccc(C2=Nc3cccc4[n+]3[B-](F)(O2)OC(c2ccc(C)cc2)=N4)cc1
394

# lookup: absorption maximum of COc1ccc(/C=C/C2=[O+][B-](F)(F)OC(/C=C/c3ccc(OC)c4ccccc34)=C2c2ccccc2)c2ccccc12
556

# lookup: absorption maximum of O=P1(c2ccccc2)C(c2cc(C(F)(F)F)cc(C(F)(F)F)c2)=Cc2c3ccc4cccc5ccc(c6cc(-c7ccccc7)n1c26)c3c45 (centres undefined)
450

# lookup: absorption maximum of CC(=O)c1ccc(-c2cc3c(ccc4sccc43)s2)cc1
350

# lookup: absorption maximum of Cc1ccc(-c2[nH]c(=O)n3c2-c2ccccc2C3=O)c(O)c1
393

# lookup: absorption maximum of CC[n+]1c(/C=C/c2c([O-])ccc3ccc(=O)oc23)sc2ccccc21
597.56

# lookup: absorption maximum of N#Cc1ccc(N(c2ccccc2)c2ccc3ccc4c(N(c5ccccc5)c5ccc(C#N)cc5)ccc5ccc2c3c54)cc1
407

# lookup: absorption maximum of C=CCNc1ccc2c(ccc3oc4cc(=[N+](C)C)ccc-4nc32)c1
610

# lookup: absorption maximum of C(#Cc1c(C#Cc2ccccc2)c(C#Cc2ccccc2)c(C#Cc2ccccc2)c(C#Cc2ccccc2)c1C#Cc1ccccc1)c1ccccc1
371

# lookup: absorption maximum of CCCCCCOc1cc(/C=C/c2cc(OCCCCCC)c(/C=C/c3cc(OCCCCCC)c(C=C4C(=O)c5ccccc5C4=O)cc3OCCCCCC)cc2OCCCCCC)c(OCCCCCC)cc1C=C1C(=O)c2ccccc2C1=O
550

# lookup: absorption maximum of N#Cc1ccc(-n2c(-c3ccc(-c4ccc(-n5c6ccccc6c6ccccc65)cc4)s3)nc3c4ccccc4c4ccccc4c32)c2ccccc12
301

# lookup: absorption maximum of [C-]#[N+]c1ccc(-c2ccc(N)cc2)cc1
307

# lookup: absorption maximum of CSc1nccc(/C=C/c2ccc(N(c3ccccc3)c3ccc(/C=C/c4ccnc(SC)n4)cc3)cc2)n1
430

# lookup: absorption maximum of CC(C)(C)c1ccc(-c2cnc3cccc(-c4ccccc4)n23)cc1
339

# lookup: absorption maximum of CN(C)c1ccc(-c2ccc(/C=C/c3ccncn3)cc2)cc1
386

# lookup: absorption maximum of CN(C)c1nc(N)c2nc(C#N)n(Cc3ccccc3)c2n1
336

# lookup: absorption maximum of Cc1ccc(/N=C2\N=C(N)c3cccc4cccc2c34)cc1
349

# lookup: absorption maximum of CC(C)(C)c1ccc(-c2sc3c(-c4ccc(C(C)(C)C)cc4)c4n(c3c2-c2ccc(C(C)(C)C)cc2)[B-](F)(F)[N+]2=Cc3c(-c5ccc(C(C)(C)C)cc5)c5sc(-c6ccc(C(C)(C)C)cc6)c(-c6ccc(C(C)(C)C)cc6)c5n3[B-](F)(F)[N+]2=C4)cc1
591

# lookup: absorption maximum of O=C1Nc2ccccc2/C1=C/C(=O)c1ccc(Cl)cc1Cl
339

# lookup: absorption maximum of CCCCCCOc1ccc(N(c2ccc(OCCCCCC)cc2)c2ccc(-c3sc(-c4ccc(N(c5ccc(OCCCCCC)cc5)c5ccc(OCCCCCC)cc5)cc4)c4nc(-c5ccc(OC)cc5)c(-c5ccc(OC)cc5)nc34)cc2)cc1
590

# lookup: absorption maximum of Cc1cccc(-c2c3ccccc3cc3ccccc23)n1
385

# lookup: absorption maximum of CCOC(=O)COc1ccc(/C=C/c2cc(C)c3n2[B-](F)(F)[N+]2=C(c4[nH]c(C)cc4C)c4ccccc4C2=C3)cc1
680

* * *

# Experiment: solvent given as SMILES
# Condition Set: in CC#N
With a cut-off of 400 nm, any absorption maximum strictly below it is called 1; any absorption maximum meeting it or above is called 0.

Would you kindly verify if absorption maximum of Cc1ccc(C#Cc2ccc3ccc(=O)oc3c2)cc1 is strictly less than 400 nm?
1

Would you kindly verify if absorption maximum of Cc1ccc(/C=N/c2cc(C(C)C)c(O)cc2C)cc1 is strictly less than 400 nm?
1

Would you kindly verify if absorption maximum of COc1ccc(-c2nc3ccccc3nc2/C=C/N2CCCC2)s1 is strictly less than 400 nm?
0

Would you kindly verify if absorption maximum of Cc1cccc(C)c1Nc1ccc(/C=C/c2cccnc2)cc1 is strictly less than 400 nm?
1

Would you kindly verify if absorption maximum of Cc1ccc(C)n1-c1ccc(N(C)C)cc1 is strictly less than 400 nm?
1
